Cited source: ChEMBL document CHEMBL4130485

system: Bovine viral diarrhea virus 1; experiment: Antiviral activity against Bovine viral diarrhea virus NADL ATCC VR 534 infected in bovine MDBK cells assessed as protection against virus-induced cytopathic effect after 3 to 4 days by MTT assay; assay type: functional, organism-based, Bovine viral diarrhea virus 1-NADL; details: Bovine viral diarrhea virus isolates and strains, ATCC VR 534, MDBK
I'd appreciate it if you could supply pEC50 values for the items below.
Answers are plain numbers, as −log10 of the molar value.

NS(=O)(=O)c1ccc(N2N=C(c3ccc(OCc4ccccc4)cc3)CC2c2ccccc2Cl)cc1 (configuration not stated) | 5.12
Cc1cccc(C2CC(c3ccc(OCc4ccccc4)cc3)=NN2c2ccc(S(N)(=O)=O)cc2)c1 (configuration not stated) | 4.90

Quick batch: pEC50 for everything below.
1. NS(=O)(=O)c1ccc(N2N=C(c3ccc(OCc4ccccc4)cc3)CC2c2ccc(Cl)cc2)cc1 (configuration not stated)
2. Cc1ccc(C2CC(c3ccc(OCc4ccccc4)cc3)=NN2c2ccc(S(N)(=O)=O)cc2)cc1 (configuration not stated)

[A]
1: 5.35; 2: 5.60
